Just for reference, patent US5082771A is where these values come from.

assay: Stability (half life) at 37° C. at various pH values; assay type: physicochemical; details: pH 5.98
Readout kind: half-life (h)
Write it as a number; the unit h goes unstated.

Item under review: CC(C)(C)C1=CC(=CC=Cc2cc(C(C)(C)C)[te+]c(C(C)(C)C)c2)C=C(C(C)(C)C)[Te]1(O)O [drawing 16] . Reported half-life? 4.5

###

experiment: Stability (half life) at 37° C. at various pH values; format: physicochemical; settings: pH 4.58
Readout kind: half-life

What half-life value was documented for this compound, CC(C)(C)C1=CC(=CC=Cc2cc(C(C)(C)C)[te+]c(C(C)(C)C)c2)C=C(C(C)(C)C)[Te]1(O)O [drawing 16] ? 3.5 h

###

assay: Stability (half life) at 37° C. at various pH values; type: physicochemical; settings: pH 10.2, pH 10.20
Readout kind: half-life (min)
Number only, in min; omit the unit.

What does the data say about its half-life? Entry: CC(C)(C)C1=CC(=CC=Cc2cc(C(C)(C)C)[te+]c(C(C)(C)C)c2)C=C(C(C)(C)C)[Te]1(O)O [drawing 16] 480

###

Test: Stability (half life) at 37° C. at various pH values
Assay type: physicochemical
Conditions: pH 8.5, pH 8.50
Description: The stability of the dihydroxycompounds used in this invention is generally very good.
Readout kind: half-life (h)
State just the number; it will be interpreted in h.

What value of measured half-life is listed for CC(C)(C)C1=CC(=CC=Cc2cc(C(C)(C)C)[te+]c(C(C)(C)C)c2)C=C(C(C)(C)C)[Te]1(O)O [drawing 16] ? 12

###

assay: Stability (half life) at 37° C. at various pH values; type: physicochemical; conditions: pH 7.4, pH 7.40
Readout kind: half-life (h)
Your answer should be a plain number; it is taken to be in h.

GET /values?readout=half-life&item= CC(C)(C)C1=CC(=CC=Cc2cc(C(C)(C)C)[te+]c(C(C)(C)C)c2)C=C(C(C)(C)C)[Te]1(O)O [drawing 16] 12

###

assay: Stability (half life) at 37° C. at various pH values; format: physicochemical; conditions: pH 9.03
Readout kind: half-life (h)
Write it as a number; the unit h goes unstated.

Requested field: half-life. Item: CC(C)(C)C1=CC(=CC=Cc2cc(C(C)(C)C)[te+]c(C(C)(C)C)c2)C=C(C(C)(C)C)[Te]1(O)O [drawing 16] 8.5

###

assay: Stability (half life) at 37° C. at various pH values; format: physicochemical; conditions: pH 11.98
Readout kind: half-life (h)
Could you give me the number in h? Just the number is fine.

# lookup: half-life of CC(C)(C)C1=CC(=CC=Cc2cc(C(C)(C)C)[te+]c(C(C)(C)C)c2)C=C(C(C)(C)C)[Te]1(O)O [drawing 16] 6.3
